MEASURED ON: Growth hormone secretagogue receptor type 1 (Homo sapiens, UniProt Q92847)
Sequence (Q92847 whole entry): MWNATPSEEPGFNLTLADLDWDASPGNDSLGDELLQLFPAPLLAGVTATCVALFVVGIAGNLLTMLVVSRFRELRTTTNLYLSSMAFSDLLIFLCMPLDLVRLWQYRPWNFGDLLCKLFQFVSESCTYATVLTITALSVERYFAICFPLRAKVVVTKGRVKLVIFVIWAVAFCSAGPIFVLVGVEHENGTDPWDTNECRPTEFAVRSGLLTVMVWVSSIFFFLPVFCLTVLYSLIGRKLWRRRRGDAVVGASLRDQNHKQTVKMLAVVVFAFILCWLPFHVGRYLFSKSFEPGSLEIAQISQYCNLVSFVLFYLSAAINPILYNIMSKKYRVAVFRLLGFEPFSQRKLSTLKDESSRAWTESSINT
ASSAY PROTOCOL: Binding affinity for human growth hormone secretagogue receptor was determined using [125I]ghrelin
OBSERVED PROPERTY: pIC50
By convention, pIC50 is the negative base-10 log of a molar concentration.

For this molecule ( `CCN(CC)CCN1C(=O)[C@@](O)(c2ccccc2Cl)c2c1cc(C(N)=O)cc2C(F)(F)F` ), measured pIC50 is 8.92

----------
MEASURED ON: Growth hormone secretagogue receptor type 1 (Homo sapiens, UniProt Q92847)
ASSAY PROTOCOL: Tested for growth hormone secretagogue activity in A93 cell line using a calcium flux assay at 10 uM (Relative to compound T1)
Format: functional, cell-based
Listing of entries alongside the reported Activity.

Example entries and their recorded answers appear below.
| COMPOUND | Activity |
| --- | --- |
| CCN(CC)CCCN(C(=O)c1ccc(-c2ccccc2)[nH]1)C(C(=O)NC1CCCCC1)c1ccc(F)cc1 (stereo not given) | 0.57 |
| CCC(C(=O)NC1CCCCC1)N(CCCN(CC)CC)C(=O)c1ccc(-c2ccccc2)[nH]1 (stereo not given) | 1.23 |

For this compound ( CCN(CC)CCCN(C(=O)c1ccc(-c2ccccc2)[nH]1)C(C(=O)NCc1ccc(F)cc1)c1ccc(F)cc1 (stereo not given) ), measured Activity is 0.45

For this compound ( CCN(CC)CCCN(C(=O)c1ccc(-c2ccccc2)[nH]1)C(C)C(=O)NC1CCCCC1 (stereo not given) ), measured Activity is 0.96

For this compound ( CCN(CC)CCCN(C(=O)c1ccc(-c2ccccc2)[nH]1)C(C(=O)NC1CCCCC1)c1ccc(OC)c(OC)c1 (stereo not given) ), measured Activity is 0.32

----------
MEASURED ON: Growth hormone secretagogue receptor type 1 (Homo sapiens, UniProt Q92847)
ASSAY PROTOCOL: Tested for growth hormone secretagogue activity in A93 cell line using a calcium flux assay at 10 uM (Relative to compound T1); NA means not active
Type: functional, cell-based
Active and inactive are the calls of the source. The calls are words filed in the database; no cut-off is given here.
OBSERVED PROPERTY: Activity

| COMPOUND | RESULT |
| --- | --- |
| CCN(CC)CCN(C(=O)c1ccc(-c2ccccc2)[nH]1)C(C(=O)NC1CCCCC1)c1c[nH]c2ccccc12 (configuration not stated) | inactive |
| CCN(CC)CCCN(C(=O)c1ccc(-c2ccccc2)[nH]1)C(C(=O)NC1CCCCC1)c1cc(OC)ccc1OC (configuration not stated) | inactive |
| CCN(CC)CCCN(C(=O)c1ccc(-c2ccccc2)[nH]1)C(C(=O)NC1CCCCC1)c1cccs1 (configuration not stated) | inactive |
| Cc1ccc(CC(C(=O)NC2CCCCC2)N(Cc2ccccc2)C(=O)c2ccc(-c3ccccc3)[nH]2)o1 (configuration not stated) | inactive |
| CCN(CC)CCCN(C(=O)c1ccc(-c2ccccc2)[nH]1)C(C(=O)NC1CCCCC1)c1ccc(C)cc1 (configuration not stated) | inactive |
| COc1ccc(CN(C(=O)c2ccc(-c3ccccc3)[nH]2)C(C)C(=O)NC2CCCCC2)cc1 (configuration not stated) | inactive |
| CCN(CC)CCCN(C(=O)c1ccc(-c2ccccc2)[nH]1)C(C(=O)NC1CCCCC1)c1cc(OC)c(OC)c(OC)c1 (configuration not stated) | inactive |
| O=C(NC1CCCCC1)C(c1ccc(F)cc1)N(C(=O)c1ccc(-c2ccccc2)[nH]1)c1ccccc1 (configuration not stated) | inactive |

For this compound ( O=C(NC1CCCCC1)C(c1ccc(F)cc1)N(CCCN1CCOCC1)C(=O)c1ccc(CN2CCOCC2)o1 (configuration not stated) ), measured Activity is inactive

For this compound ( O=C(NC1CCCC1)C(c1ccncc1)N(CCCN1CCOCC1)C(=O)c1ccc(-c2ccccc2)[nH]1 (configuration not stated) ), measured Activity is inactive

For this compound ( CCN(CC)CCN(C(=O)c1ccc(CN2CCCCC2)o1)C(C(=O)NC1CCCCC1)c1ccc(N(C)C)cc1 (configuration not stated) ), measured Activity is inactive

For this compound ( O=C(NC1CCCCC1)C(c1ccc(F)cc1)N(C(=O)c1ccc(-c2ccccc2)[nH]1)C1CCCCC1 (configuration not stated) ), measured Activity is inactive

For this compound ( CCN(CC)CCCN(C(=O)c1snc(C(N)=O)c1N)C(C(=O)NC1CCCCC1)c1ccc(F)cc1 (configuration not stated) ), measured Activity is inactive

For this compound ( Cc1ccc(CC(C(=O)NC2CCCCC2)N(C(=O)c2ccc(-c3ccccc3)[nH]2)C2CCCC2)o1 (configuration not stated) ), measured Activity is inactive

For this compound ( COc1ccc(CN(C(=O)c2ccc(-c3ccccc3)[nH]2)C(C(=O)NC2CCCCC2)c2ccc(F)cc2)cc1 (configuration not stated) ), measured Activity is inactive

For this compound ( CCOC(=O)CN(C(=O)c1ccc(-c2ccccc2)[nH]1)C(C)C(=O)NC1CCCCC1 (configuration not stated) ), measured Activity is inactive

For this compound ( CCOc1ccc(C(C(=O)NC2CCCCC2)N(CCCN(CC)CC)C(=O)c2ccc(-c3ccccc3)[nH]2)cc1 (configuration not stated) ), measured Activity is inactive
